system: P388 leukemia; experiment: Antitumor effect against in vivo murine transplantable P388 leukemia; set-up: species or system mice; conditions: 1 mg/kg/day, QD 1→9 ip
quantity: MST (% T/C)
// note: answer is a bare numeric in % T/C

Param item = CCCCCCCCCCCCCC(=O)N[C@H](C(=O)NC1CC(O)CCNC(=O)/C=C/C(C)NC1=O)[C@@H](C)O (stereo partly drawn) [Example 3, n-Tetradecanoyl-III] ; retrieve measured MST (% T/C).
150

Param item = CCCCCCCCCC(=O)N[C@H](C(=O)NC1CC(O)CCNC(=O)/C=C/C(C)NC1=O)[C@@H](C)O (stereo partly drawn) [Example 2, n-Decanoyl-III] ; retrieve measured MST (% T/C).
127

---

system: B16 melanoma; assay: Antitumor effect against in vivo murine B16 melanoma; design: species or system mice; details: .5 mg/kg/day, QD 1→9 ip
Hi there, I'd appreciate the recorded MST (% T/C) for every entry that follows.
// note: answer is a bare numeric in % T/C

Param item = CCCCCC=CCCC=CC=CC(=O)NC(C(=O)NC1CC(O)CCNC(=O)C=CC(C)NC1=O)C(C)O (centres unmarked) [BU-2867T B, reference compound] ; retrieve measured MST (% T/C).
118

Param item = CCCCCCCCCC=CC=CC(=O)NC(C(=O)NC1CC(O)CCNC(=O)C=CC(C)NC1=O)C(C)O (centres unmarked) [BU-2867T C, reference compound] ; retrieve measured MST (% T/C).
103

Param item = CCCCCCCCCCCCCC(=O)N[C@H](C(=O)NC1CC(O)CCNC(=O)/C=C/C(C)NC1=O)[C@@H](C)O (some centres unmarked) [Example 3, n-Tetradecanoyl-III] ; retrieve measured MST (% T/C).
113

Param item = CCCCCCCC=CC=CC(=O)NC(C(=O)NC1CC(O)CCNC(=O)C=CC(C)NC1=O)C(C)O (centres unmarked) [BU-2867T A, reference compound] ; retrieve measured MST (% T/C).
113

Param item = CCCCCCCCCCCC(=O)N[C@H](C(=O)NC1CC(O)CCNC(=O)/C=C/C(C)NC1=O)[C@@H](C)O (some centres unmarked) [Example 1, n-Dodecanoyl-III] ; retrieve measured MST (% T/C).
113

---

tested on: P388 leukemia; assay: Antitumor effect against in vivo murine transplantable P388 leukemia; set-up: species or system mice; conditions: 3 mg/kg/day, QD 1→3 ip
quantity: MST (% T/C)
// note: answer is a bare numeric in % T/C

Requested read-out MST (% T/C), target or system P388 leukemia, entry CCCCCCCCCCCCCCCC(=O)N[C@H](C(=O)NC1CC(O)CCNC(=O)/C=C/C(C)NC1=O)[C@@H](C)O (stereo partly drawn)
119

Requested read-out MST (% T/C), target or system P388 leukemia, entry CCCCCCCCC/C=C/C(=O)N[C@H](C(=O)NC1CC(O)CCNC(=O)/C=C/C(C)NC1=O)[C@@H](C)O (relative stereo) [Example 4, trans-2-Dodecenoyl-III]
118

Requested read-out MST (% T/C), target or system P388 leukemia, entry CCCCCCCCCC=CC=CC(=O)NC(C(=O)NC1CC(O)CCNC(=O)C=CC(C)NC1=O)C(C)O (stereo not drawn) [BU-2867T C, reference compound]
129

Requested read-out MST (% T/C), target or system P388 leukemia, entry CCCCCCCCCC(=O)N[C@H](C(=O)NC1CC(O)CCNC(=O)/C=C/C(C)NC1=O)[C@@H](C)O (stereo partly drawn)
127

Requested read-out MST (% T/C), target or system P388 leukemia, entry CCCCCCCCCCCC(=O)N[C@H](C(=O)NC1CC(O)CCNC(=O)/C=C/C(C)NC1=O)[C@@H](C)O (stereo partly drawn)
145

Requested read-out MST (% T/C), target or system P388 leukemia, entry CCCCCCCCCCCCCCC(O)C(=O)N[C@H](C(=O)NC1CC(O)CCNC(=O)/C=C/C(C)NC1=O)[C@@H](C)O (stereo partly drawn) [Example 5, 2-Hydroxy-hexadecanoyl-III]
132

Requested read-out MST (% T/C), target or system P388 leukemia, entry CCCCCCCCCCCCCC(=O)N[C@H](C(=O)NC1CC(O)CCNC(=O)/C=C/C(C)NC1=O)[C@@H](C)O (stereo partly drawn)
132
